test system: HCC-38; assay: relative cell number vs DMSO control (72 h) (% of DMSO); higher = less growth inhibition (more cells); settings: sgRNA knockout: sgNT, 10000 nM
Measured relative cell number of individual entries
Format: numeric value only, no unit, no commentary.

COc1cc(CCc2cc(NC(=O)c3ccc(N4CC(C)NC(C)C4)cc3)n[nH]2)cc(OC)c1 (centres undefined) [AZD4547]	46.8
C[C@]12CC[C@@H]3c4ccc(O)cc4C[C@@H](CCCCCCCCC[S+]([O-])CCCC(F)(F)C(F)(F)F)[C@H]3[C@@H]1CC[C@@H]2O (some centres undefined) [Fulvestrant]	94.5
C[C@@H](Nc1cc(F)cc(F)c1)c1cc(C(=O)N(C)C)cc2c(=O)cc(N3CCOCC3)oc12 [AZD8186]	79.5

Proceeding to the next compound to report its relative cell number.
Tell me reported relative cell number for S=c1nc[nH]c2nc[nH]c12 [6-Mercaptopurine] , tested with HCC-38.
61.3
